System: 349418-098-R-PDC complex spheroid viability;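 also: spheroids exposed to agents for seven days before readout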
Test: Anticancer human tumor 349418-098-R-PDC patient-derived lung adenocarcinoma cell line growth inhibition
Conditions: second compound 3.16 µM; first compound 10 µM; active compounds read low
Decision: viability, T/C beneath 8% gives fulfilled; viability, T/C meeting or exceeding 8% gives not fulfilled.

Consider the worked cases shown below.
>  <compound>
CC1(C)CCC(CN2CCN(c3ccc(C(=O)NS(=O)(=O)c4ccc(NCC5CCOCC5)c([N+](=O)[O-])c4)c(Oc4cnc5[nH]ccc5c4)c3)CC2)=C(c2ccc(Cl)cc2)C1 + NC1CC1c1ccc(-c2cccc(O)c2)cc1

>  <label_value>
fulfilled

$$$$
>  <compound>
CC(C)c1c(-c2ccccc2)nc2c(C#N)c[nH]n2c1=O + NC1CCC(NC2CC2c2ccccc2)CC1

>  <label_value>
not fulfilled

$$$$
>  <compound>
O=C(c1cc(Cc2n[nH]c(=O)c3ccccc23)ccc1F)N1CCN(C(=O)C2CC2)CC1 + NC1CCC(NC2CC2c2ccccc2)CC1

>  <label_value>
not fulfilled

$$$$
>  <compound>
COc1ccc([C@@H](O)c2cc(-c3ncnc4cc(N5CCOCC5)ccc34)c(F)cc2Cl)nn1 + NC1CCC(NC2CC2c2ccccc2)CC1

>  <label_value>
fulfilled

$$$$
>  <compound>
CC1COCCN1c1cc(C2(S(C)(=N)=O)CC2)nc(-c2ccnc3[nH]ccc23)n1 (stereo unspecified) + NC1CC1c1ccc(-c2cccc(O)c2)cc1

>  <label_value>
not fulfilled

$$$$

Moving on to the next compound.
### Prompt Lab note: confirm whether the reported viability, T/C for this compound is below 8%, equality not counting. compound: CC1COCCN1c1cc(C2(S(C)(=N)=O)CC2)nc(-c2ccnc3[nH]ccc23)n1 (stereo unspecified) + NC1CCC(NC2CC2c2ccccc2)CC1
### Response fulfilled
